system tested: Metabotropic glutamate receptor 2 (Homo sapiens, UniProt Q14416)
Sequence (Q14416 whole entry): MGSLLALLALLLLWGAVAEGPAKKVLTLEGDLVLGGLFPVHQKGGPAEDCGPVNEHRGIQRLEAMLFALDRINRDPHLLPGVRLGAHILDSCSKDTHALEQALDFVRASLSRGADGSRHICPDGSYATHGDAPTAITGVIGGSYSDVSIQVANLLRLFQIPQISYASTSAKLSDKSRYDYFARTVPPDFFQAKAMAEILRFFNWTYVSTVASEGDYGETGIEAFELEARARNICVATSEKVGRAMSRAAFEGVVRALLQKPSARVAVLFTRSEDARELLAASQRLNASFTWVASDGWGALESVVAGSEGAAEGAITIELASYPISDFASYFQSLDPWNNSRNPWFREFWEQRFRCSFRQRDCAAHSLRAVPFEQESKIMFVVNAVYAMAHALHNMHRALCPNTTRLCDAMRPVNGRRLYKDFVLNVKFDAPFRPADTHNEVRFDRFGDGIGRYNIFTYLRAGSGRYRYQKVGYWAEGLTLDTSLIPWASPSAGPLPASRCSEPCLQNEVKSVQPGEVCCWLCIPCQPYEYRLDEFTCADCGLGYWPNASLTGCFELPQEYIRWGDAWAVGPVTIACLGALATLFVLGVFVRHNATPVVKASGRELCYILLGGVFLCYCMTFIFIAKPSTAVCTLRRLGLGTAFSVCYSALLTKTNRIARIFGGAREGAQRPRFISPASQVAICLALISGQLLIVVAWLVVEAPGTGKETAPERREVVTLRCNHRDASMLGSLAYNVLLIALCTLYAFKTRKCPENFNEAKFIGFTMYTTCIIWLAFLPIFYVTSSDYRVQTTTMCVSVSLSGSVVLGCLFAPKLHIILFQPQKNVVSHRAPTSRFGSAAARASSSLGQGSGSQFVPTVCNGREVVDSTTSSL
protocol notes: Agonist activity at human mGlu2 receptor expressed in HEK293 cells co-expressing Gqo5 assessed as increase in intracellular Ca2+ mobilization incubated for 1 hr by Fluo-4 dye based fluorescence assay
Type: functional, cell-based
setup conditions: read-out: pEC50 (converted)
Entries and their EC50 values follow.
property measured: EC50

- structure as smiles: "COCCOc1cccc(C(=O)C2CCN(CCc3ccc(F)cc3)CC2)c1OC"
  system tested: "Metabotropic glutamate receptor 2 (Homo sapiens, UniProt Q14416)"
  property measured: "EC50"
  assay result: "> 50.1 µM"
- structure as smiles: "COc1c(O)cccc1C(=O)C1CCN(CCc2ccc(F)cc2)CC1"
  system tested: "Metabotropic glutamate receptor 2 (Homo sapiens, UniProt Q14416)"
  property measured: "EC50"
  assay result: "> 50.1 µM"
- structure as smiles: "COc1ccccc1C1CCN(c2ccn3c(CC4CC4)nnc3c2Cl)CC1"
  system tested: "Metabotropic glutamate receptor 2 (Homo sapiens, UniProt Q14416)"
  property measured: "EC50"
  assay result: "0.0355 µM"
- structure as smiles: "COc1cccc(C(=O)C2CCN(CCc3ccc(F)cc3)CC2)c1OC"
  system tested: "Metabotropic glutamate receptor 2 (Homo sapiens, UniProt Q14416)"
  property measured: "EC50"
  assay result: "> 50.1 µM"

---

Entries and their pIC50 values follow.
system tested: 5-hydroxytryptamine receptor 2A/Metabotropic glutamate receptor 2 (Homo sapiens, UniProt P28223+Q14416)
Sequence (P28223 whole entry): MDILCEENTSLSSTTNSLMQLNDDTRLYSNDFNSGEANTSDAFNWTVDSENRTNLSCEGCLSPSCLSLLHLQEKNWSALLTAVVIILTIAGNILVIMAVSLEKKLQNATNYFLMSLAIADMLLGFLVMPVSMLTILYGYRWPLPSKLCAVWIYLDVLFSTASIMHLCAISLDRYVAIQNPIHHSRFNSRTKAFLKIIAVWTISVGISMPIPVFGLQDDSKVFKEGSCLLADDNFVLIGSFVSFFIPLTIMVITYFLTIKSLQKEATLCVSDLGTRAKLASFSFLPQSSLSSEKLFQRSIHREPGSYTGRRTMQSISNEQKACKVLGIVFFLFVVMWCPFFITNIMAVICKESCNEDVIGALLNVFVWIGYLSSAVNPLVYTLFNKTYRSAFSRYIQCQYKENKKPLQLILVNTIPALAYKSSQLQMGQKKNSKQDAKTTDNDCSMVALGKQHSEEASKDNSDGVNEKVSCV
Sequence (Q14416 whole entry): as the sequence (Q14416 whole entry) above
protocol notes: Antagonist activity at human 5HT2A/mGlu2 receptor expressed in HEK293 cells co-expressing Gqo5 assessed as inhibition of glutamate-induced intracellular Ca2+ mobilization incubated for 1 hr by Fluo-4 dye based fluorescence assay 5HT2A_HUMAN/GRM2_HUMAN P28223/Q14416
Type: functional, cell-based
pIC50: −log10 of the molar value.
property measured: pIC50

- structure as smiles: "COc1c(OCCOCCOCCOc2ccc(C3CCN(c4ccn5c(CC6CC6)nnc5c4Cl)CC3)cc2)cccc1C(=O)C1CCN(CCc2ccc(F)cc2)CC1"
  property measured: "pIC50"
  assay result: 5.28
- structure as smiles: "COCCOc1cccc(C(=O)C2CCN(CCc3ccc(F)cc3)CC2)c1OC"
  property measured: "pIC50"
  assay result: 7.54
- structure as smiles: "COc1c(OCCOCCOCCOCCOCCOCCOCCOCCOCCOCCOCCOCCOc2ccc(C3CCN(c4ccn5c(CC6CC6)nnc5c4Cl)CC3)cc2)cccc1C(=O)C1CCN(CCc2ccc(F)cc2)CC1"
  property measured: "pIC50"
  assay result: 6.15
- structure as smiles: "COc1c(OCCOCCOCCOCCOCCOc2ccc(C3CCN(c4ccn5c(CC6CC6)nnc5c4Cl)CC3)cc2)cccc1C(=O)C1CCN(CCc2ccc(F)cc2)CC1"
  property measured: "pIC50"
  assay result: 5.72
- structure as smiles: "COc1cccc(C(=O)C2CCN(CCc3ccc(F)cc3)CC2)c1OC"
  property measured: "pIC50"
  assay result: 7.62
- structure as smiles: "COc1c(OCCOCCOCCOCCOCCOCCOCCOCCOc2ccc(C3CCN(c4ccn5c(CC6CC6)nnc5c4Cl)CC3)cc2)cccc1C(=O)C1CCN(CCc2ccc(F)cc2)CC1"
  property measured: "pIC50"
  assay result: 6.18

---

system tested: 5-hydroxytryptamine receptor 2A/Metabotropic glutamate receptor 2 (Homo sapiens, UniProt P28223+Q14416)
protocol notes: Positive modulator activity at human 5HT2A/mGlu2 receptor expressed in HEK293 cells co-expressing Gqo5 assessed as increase in intracellular Ca2+ mobilization incubated for 1 hr by Fluo-4 dye based fluorescence assay 5HT2A_HUMAN/GRM2_HUMAN P28223/Q14416
Format: functional, cell-based
pEC50: −log10 of the molar value.
property measured: pEC50

- structure as smiles: "COc1ccccc1C1CCN(c2ccn3c(CC4CC4)nnc3c2Cl)CC1"
  assay result: 7.72

---

system tested: 5-hydroxytryptamine receptor 2A (Homo sapiens, UniProt P28223)
protocol notes: Antagonist activity at human 5HT2A receptor expressed in HEK293 cells assessed as inhibition of 5HT-induced intracellular Ca2+ mobilization incubated for 1 hr by Fluo-4 dye based fluorescence assay
Format: functional, cell-based
setup conditions: read-out: IC50
property measured: IC50 (nM)

- structure as smiles: "COc1ccccc1C1CCN(c2ccn3c(CC4CC4)nnc3c2Cl)CC1"
  system tested: "5-hydroxytryptamine receptor 2A (Homo sapiens, UniProt P28223)"
  unit info: "nM"
  assay result: 1300
- structure as smiles: "COc1c(OCCOCCOCCOCCOCCOCCOCCOCCOc2ccc(C3CCN(c4ccn5c(CC6CC6)nnc5c4Cl)CC3)cc2)cccc1C(=O)C1CCN(CCc2ccc(F)cc2)CC1"
  system tested: "5-hydroxytryptamine receptor 2A (Homo sapiens, UniProt P28223)"
  unit info: "nM"
  assay result: 410
- structure as smiles: "COc1c(OCCOCCOCCOCCOCCOCCOCCOCCOCCOCCOCCOCCOc2ccc(C3CCN(c4ccn5c(CC6CC6)nnc5c4Cl)CC3)cc2)cccc1C(=O)C1CCN(CCc2ccc(F)cc2)CC1"
  system tested: "5-hydroxytryptamine receptor 2A (Homo sapiens, UniProt P28223)"
  unit info: "nM"
  assay result: 520
- structure as smiles: "COCCOc1cccc(C(=O)C2CCN(CCc3ccc(F)cc3)CC2)c1OC"
  system tested: "5-hydroxytryptamine receptor 2A (Homo sapiens, UniProt P28223)"
  unit info: "nM"
  assay result: 9.3
- structure as smiles: "COc1c(OCCOCCOCCOCCOCCOc2ccc(C3CCN(c4ccn5c(CC6CC6)nnc5c4Cl)CC3)cc2)cccc1C(=O)C1CCN(CCc2ccc(F)cc2)CC1"
  system tested: "5-hydroxytryptamine receptor 2A (Homo sapiens, UniProt P28223)"
  unit info: "nM"
  assay result: 450
- structure as smiles: "COc1c(OCCOCCOCCOCCOc2ccc(C3CCN(c4ccn5c(CC6CC6)nnc5c4Cl)CC3)cc2)cccc1C(=O)C1CCN(CCc2ccc(F)cc2)CC1"
  system tested: "5-hydroxytryptamine receptor 2A (Homo sapiens, UniProt P28223)"
  unit info: "nM"
  assay result: 280
- structure as smiles: "COc1c(O)cccc1C(=O)C1CCN(CCc2ccc(F)cc2)CC1"
  system tested: "5-hydroxytryptamine receptor 2A (Homo sapiens, UniProt P28223)"
  unit info: "nM"
  assay result: 11
- structure as smiles: "COc1cccc(C(=O)C2CCN(CCc3ccc(F)cc3)CC2)c1OC"
  system tested: "5-hydroxytryptamine receptor 2A (Homo sapiens, UniProt P28223)"
  unit info: "nM"
  assay result: 0.81

---

system tested: 5-hydroxytryptamine receptor 2A/Metabotropic glutamate receptor 2 (Homo sapiens, UniProt P28223+Q14416)
protocol notes: Antagonist activity at human 5HT2A/mGlu2 receptor expressed in HEK293 cells assessed as inhibition of 5HT-induced intracellular Ca2+ mobilization incubated for 1 hr by Fluo-4 dye based fluorescence assay 5HT2A_HUMAN/GRM2_HUMAN P28223/Q14416
Format: functional, cell-based
setup conditions: read-out: IC50
property measured: IC50

- structure as smiles: "COc1c(OCCOCCOCCOCCOCCOc2ccc(C3CCN(c4ccn5c(CC6CC6)nnc5c4Cl)CC3)cc2)cccc1C(=O)C1CCN(CCc2ccc(F)cc2)CC1"
  assay result: "1 µM"
- structure as smiles: "COc1c(OCCOCCOCCOCCOCCOCCOc2ccc(C3CCN(c4ccn5c(CC6CC6)nnc5c4Cl)CC3)cc2)cccc1C(=O)C1CCN(CCc2ccc(F)cc2)CC1"
  assay result: "0.51 µM"
- structure as smiles: "COCCOc1cccc(C(=O)C2CCN(CCc3ccc(F)cc3)CC2)c1OC"
  assay result: "0.016 µM"
- structure as smiles: "COc1c(OCCOCCOCCOCCOc2ccc(C3CCN(c4ccn5c(CC6CC6)nnc5c4Cl)CC3)cc2)cccc1C(=O)C1CCN(CCc2ccc(F)cc2)CC1"
  assay result: "1.7 µM"
- structure as smiles: "COc1cccc(C(=O)C2CCN(CCc3ccc(F)cc3)CC2)c1OC"
  assay result: "0.0062 µM"
- structure as smiles: "COc1c(O)cccc1C(=O)C1CCN(CCc2ccc(F)cc2)CC1"
  assay result: "0.0092 µM"
- structure as smiles: "COc1ccccc1C1CCN(c2ccn3c(CC4CC4)nnc3c2Cl)CC1"
  assay result: "10 µM"
- structure as smiles: "COc1c(OCCOCCOCCOc2ccc(C3CCN(c4ccn5c(CC6CC6)nnc5c4Cl)CC3)cc2)cccc1C(=O)C1CCN(CCc2ccc(F)cc2)CC1"
  assay result: "7.9 µM"
- structure as smiles: "COc1c(OCCOCCOCCOCCOCCOCCOCCOCCOc2ccc(C3CCN(c4ccn5c(CC6CC6)nnc5c4Cl)CC3)cc2)cccc1C(=O)C1CCN(CCc2ccc(F)cc2)CC1"
  assay result: "0.27 µM"
- structure as smiles: "COc1c(OCCOCCOCCOCCOCCOCCOCCOCCOCCOCCOCCOCCOc2ccc(C3CCN(c4ccn5c(CC6CC6)nnc5c4Cl)CC3)cc2)cccc1C(=O)C1CCN(CCc2ccc(F)cc2)CC1"
  assay result: "1.6 µM"
- structure as smiles: "COc1c(OCCOCCOCCOCCOCCOCCOCCOCCOCCOCCOc2ccc(C3CCN(c4ccn5c(CC6CC6)nnc5c4Cl)CC3)cc2)cccc1C(=O)C1CCN(CCc2ccc(F)cc2)CC1"
  assay result: "0.3 µM"
